Assay: in vitro
Type: in vitro ADME, human
Details: human, Caco-2, Papp × 10^−4 (cm/s) (A→B)
experimental.readout: Papp A→B at 180 min, 150 μg/mL (×10⁻⁶ cm/s)
Give a bare numeral; the unit ×10⁻⁶ cm/s is implied.

// field: Papp A→B at 180 min, 150 μg/mL; key: O=C(/C=C/c1ccc(O)cc1)OC[C@H]1O[C@@H](Oc2c(-c3ccc(O)cc3)oc3cc(O)cc(O)c3c2=O)[C@H](O)[C@@H](O)[C@@H]1O [Tiliroside] ; value = 268

###

Test system: P-gp
Experiment: in vitro
Format: in vitro ADME, human
Details: human, Caco-2, RB→A/A→B
The compounds listed here are annotated with their efflux ratio at 180 min, 50 μg/mL.
Please respond with just the number, no unit label.

compound="C[C@@H]1CC[C@]2(C(=O)O)CC[C@]3(C)C(=CC[C@@H]4[C@@]5(C)C[C@@H](O)[C@@H](O)C(C)(C)[C@@H]5CC[C@]43C)[C@@H]2[C@]1(C)O [Euscaphic acid]" experimental_readout="efflux ratio at 180 min, 50 μg/mL" numeric_readout=0.72

Then there is this compound:
// field: efflux ratio at 180 min, 50 μg/mL; key: O=C(/C=C/c1ccc(O)cc1)OC[C@H]1O[C@@H](Oc2c(-c3ccc(O)cc3)oc3cc(O)cc(O)c3c2=O)[C@H](O)[C@@H](O)[C@@H]1O [Tiliroside] ; value = 1.09

###

Assay: in vitro
Format: in vitro ADME, human
Conditions: human, Caco-2, Papp × 10^−4 (cm/s) (A→B)
experimental.readout: Papp A→B at 180 min, 50 μg/mL
Number first, unit second: that is the form wanted.

// field: Papp A→B at 180 min, 50 μg/mL; key: O=C(/C=C/c1ccc(O)cc1)OC[C@H]1O[C@@H](Oc2c(-c3ccc(O)cc3)oc3cc(O)cc(O)c3c2=O)[C@H](O)[C@@H](O)[C@@H]1O [Tiliroside] ; value = 137 ×10⁻⁶ cm/s

###

Test: in vitro
Format: in vitro ADME, human
Conditions: human, Caco-2, pH 5, Papp × 10^−4 (cm/s) (A→B)
experimental.readout: Papp A→B at 180 min, 50 μg/mL (×10⁻⁶ cm/s)
Give a bare numeral; the unit ×10⁻⁶ cm/s is implied.

// field: Papp A→B at 180 min, 50 μg/mL; key: O=C(/C=C/c1ccc(O)cc1)OC[C@H]1O[C@@H](Oc2c(-c3ccc(O)cc3)oc3cc(O)cc(O)c3c2=O)[C@H](O)[C@@H](O)[C@@H]1O [Tiliroside] ; value = 380

###

Assay: in vitro
Format: in vitro ADME, human
Conditions: human, Caco-2, pH 9, Papp × 10^−4 (cm/s) (A→B)
experimental.readout: Papp A→B at 180 min, 150 μg/mL (×10⁻⁶ cm/s)
Give a bare numeral; the unit ×10⁻⁶ cm/s is implied.

// field: Papp A→B at 180 min, 150 μg/mL; key: O=C(/C=C/c1ccc(O)cc1)OC[C@H]1O[C@@H](Oc2c(-c3ccc(O)cc3)oc3cc(O)cc(O)c3c2=O)[C@H](O)[C@@H](O)[C@@H]1O [Tiliroside] ; value = 66

###

Experiment: in vitro
Assay type: in vitro ADME, human
Conditions: human, Caco-2, pH 9, Papp × 10^−4 (cm/s) (B→A)
experimental.readout: Papp B→A at 180 min, 50 μg/mL (×10⁻⁶ cm/s)
Give a bare numeral; the unit ×10⁻⁶ cm/s is implied.

// field: Papp B→A at 180 min, 50 μg/mL; key: O=C(/C=C/c1ccc(O)cc1)OC[C@H]1O[C@@H](Oc2c(-c3ccc(O)cc3)oc3cc(O)cc(O)c3c2=O)[C@H](O)[C@@H](O)[C@@H]1O [Tiliroside] ; value = 42
